Values from patent US8673890B2

System: washed platelets
experiment_summary: Thrombin-induced platelet aggregation in washed platelets
Format: cell-based, human
cond: Homo sapiens, Platelet
Description: Platelet aggregation studies were performed according to the method of Bednar et al. (Bednar, B., Condra, C., Gould, R. J., and Connolly, T. M., Thromb. Res., 77:453-463 (1995)). […] The assay plate was stirred constantly and intermittently placed in a microplate reader (Softmax, Molecular Devices, Menlo Park, Calif.) to read optical density (650 nm) at 0 and 5 minutes after the addition of the compound solutions. […]
measured_quantity: IC50 (µM)
Please respond with the number in µM and leave the unit unwritten.

As a guide, the following entries are already answered.
>>> measured_result("COc1c(N2CCOCC2)cc(C(=O)CN2Cc3cc4c(cc3C2=N)OCc2nccnc2CO4)cc1C(C)(C)C")
0.304
>>> measured_result("COC(=O)c1ccc2c(c1)COc1cc3c(cc1OC2)CN(CC(=O)c1cc(N2CCOCC2)c(OC)c(C(C)(C)C)c1)C3=N")
0.813
>>> measured_result("COc1c(N2CCOCC2)cc(C(=O)CN2Cc3cc4c(cc3C2=N)OCc2ncccc2CO4)cc1C(C)(C)C")
0.282
>>> measured_result("CC(C)(C)c1cc(C(=O)CN2Cc3cc4c(cc3C2=N)OCc2ncccc2CO4)cc(C(C)(C)C)c1O")
0.107

Turning now to a further record.
[in] Quick one: IC50 for "COc1c(N2CCOCC2)cc(C(=O)CN2Cc3cc4c(cc3C2=N)OCc2cc3c(cc2CO4)OCO3)cc1C(C)(C)C" ?
[out] 2.11
